system: NPAS3;ARNT (mouse;mouse?, UniProt Q9QZQ0;P53762 56-455;82-464, |)
Sequence (Q9QZQ0 56-455, chain 1 of 2): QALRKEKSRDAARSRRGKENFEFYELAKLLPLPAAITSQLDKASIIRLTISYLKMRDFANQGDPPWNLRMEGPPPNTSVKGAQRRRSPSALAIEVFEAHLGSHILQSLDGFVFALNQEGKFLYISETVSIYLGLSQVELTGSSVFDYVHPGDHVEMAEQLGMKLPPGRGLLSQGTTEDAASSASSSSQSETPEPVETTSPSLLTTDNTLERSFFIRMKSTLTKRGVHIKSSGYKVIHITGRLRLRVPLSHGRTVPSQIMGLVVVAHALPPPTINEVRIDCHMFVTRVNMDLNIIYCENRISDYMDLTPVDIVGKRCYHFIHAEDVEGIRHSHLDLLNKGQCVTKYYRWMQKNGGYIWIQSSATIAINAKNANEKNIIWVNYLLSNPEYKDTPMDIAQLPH
Sequence (P53762 82-464, chain 2 of 2): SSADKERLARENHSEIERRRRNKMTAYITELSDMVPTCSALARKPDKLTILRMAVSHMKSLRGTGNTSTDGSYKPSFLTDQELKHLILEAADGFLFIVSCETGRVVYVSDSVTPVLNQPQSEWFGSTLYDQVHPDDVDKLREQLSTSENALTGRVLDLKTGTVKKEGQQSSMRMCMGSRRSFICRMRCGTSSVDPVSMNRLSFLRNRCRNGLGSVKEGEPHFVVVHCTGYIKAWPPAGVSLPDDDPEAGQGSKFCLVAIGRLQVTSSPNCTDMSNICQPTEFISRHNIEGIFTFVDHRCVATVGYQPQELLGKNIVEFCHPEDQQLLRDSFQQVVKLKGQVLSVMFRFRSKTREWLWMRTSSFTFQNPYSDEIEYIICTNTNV
assay-comment: fluorescence anisotropy; FP: 2 nM DNA, 20 mM Tris pH 8.0, 50 mM NaCl, 10 mM DTT, 30 min, temperature not stated (DNA annealed in 10 mM Tris pH 7.5, 1 mM EDTA, 2 mM MgCl2)
measurement-setup: protein: recombinant;recombinant; tags: vector pSJ2; copies: 1;1; blunt
quantity-measured: Kd (nM)
Hi! Could you send only the number? It should be in nM, unit omitted.

Ask | Bench note: what Kd did HRE 21-mer (FP probe) (dsDNA) DNA 1: GGCTGCGTACGTGCGGGTCGT DNA 2: ACGACCCGCACGTACGCAGCC show?
Reply | 17.5

From: paper PMC5111884
